# protocolDetails: Phase 1 study: single- and multiple-dose plasma pharmacokinetics
# Type: in vivo, human (Japanese patients)
# testConditions: human, plasma, po, 0.75 mg, single dose 0.75 mg oral, N = 3; geometric mean (geometric %CV)

{"molecule": "Cn1ncnc1[C@H]1c2n[nH]c(=O)c3cc(F)cc(c23)N[C@@H]1c1ccc(F)cc1", "Cmax": "7.24 ng/mL"}

* * *

# protocolDetails: Phase 1 study: single- and multiple-dose plasma pharmacokinetics
# Assay type: in vivo, human (Japanese patients)
# testConditions: human, plasma, po, 0.75 mg, plasma, single dose 0.75 mg oral, N = 3; median (range); read-out: Tmax
measuredAttribute: Tmax (min)

{"compound": "Cn1ncnc1[C@H]1c2n[nH]c(=O)c3cc(F)cc(c23)N[C@@H]1c1ccc(F)cc1 [Talazoparib, talazoparib]", "measuredAttribute": "Tmax", "observedResult": 58.8}
